# target.entity: Carbonic anhydrase 1 (Homo sapiens)
# Sequence (P00915 whole entry): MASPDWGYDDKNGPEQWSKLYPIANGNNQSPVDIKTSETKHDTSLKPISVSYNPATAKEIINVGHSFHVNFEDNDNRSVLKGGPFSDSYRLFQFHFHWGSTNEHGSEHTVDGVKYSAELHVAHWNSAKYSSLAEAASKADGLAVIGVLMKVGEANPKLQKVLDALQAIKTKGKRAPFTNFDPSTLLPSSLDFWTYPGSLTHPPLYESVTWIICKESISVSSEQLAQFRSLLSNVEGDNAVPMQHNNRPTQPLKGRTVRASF
# procedure.details: Esterase Activity Assay
# setup.conditions: pH 7.4
List of IC50 values.
assay.metric: IC50 (nM)

{"chemical.smiles": "CC(=O)/C(=N\\Nc1ccc(-n2nc(C(=O)Nc3nnc(S(N)(=O)=O)s3)c(C(=O)c3ccccc3)c2-c2ccccc2)cc1)C(=O)c1ccccc1", "output.unit": "nM", "result.number": 1000}
{"chemical.smiles": "NS(=O)(=O)c1nnc(NC(=O)c2nn(-c3ccc(/N=N/c4c(O)ccc5ccccc45)cc3)c(-c3ccccc3)c2C(=O)c2ccccc2)s1", "output.unit": "nM", "result.number": 4750}
{"chemical.smiles": "CC(=O)C(=NNc1ccc(-n2nc(C(=O)Nc3nnc(S(N)(=O)=O)s3)c(C(=O)c3ccccc3)c2-c2ccccc2)cc1)C(C)=O", "output.unit": "nM", "result.number": 570}
{"chemical.smiles": "CCOC(=O)/C(=N/Nc1ccc(-n2nc(C(=O)Nc3nnc(S(N)(=O)=O)s3)c(C(=O)c3ccccc3)c2-c2ccccc2)cc1)C(=O)c1ccccc1", "output.unit": "nM", "result.number": 800}
{"chemical.smiles": "NS(=O)(=O)c1nnc(NC(=O)c2nn(-c3ccc(I)cc3)c(-c3ccccc3)c2C(=O)c2ccccc2)s1", "output.unit": "nM", "result.number": 350}
{"chemical.smiles": "CC(=O)Cn1c(C)cc2cc(-n3nc(C(=O)Nc4nnc(S(N)(=O)=O)s4)c(C(=O)c4ccccc4)c3-c3ccccc3)ccc21", "output.unit": "nM", "result.number": 2400}
{"chemical.smiles": "CCOC(=O)/C(=N/Nc1ccc(-n2nc(C(=O)Nc3nnc(S(N)(=O)=O)s3)c(C(=O)c3ccccc3)c2-c2ccccc2)cc1)C(C)=O", "output.unit": "nM", "result.number": 910}
{"chemical.smiles": "NS(=O)(=O)c1nnc(NC(=O)c2nn(-c3ccc(/N=N/c4ccc(O)cc4)cc3)c(-c3ccccc3)c2C(=O)c2ccccc2)s1", "output.unit": "nM", "result.number": 230}
{"chemical.smiles": "NS(=O)(=O)c1nnc(NC(=O)c2nn(-c3ccc(NN=C(C(=O)c4ccccc4)C(=O)c4ccccc4)cc3)c(-c3ccccc3)c2C(=O)c2ccccc2)s1", "output.unit": "nM", "result.number": 4800}
{"chemical.smiles": "CCOC(=O)C(=NNc1ccc(-n2nc(C(=O)Nc3nnc(S(N)(=O)=O)s3)c(C(=O)c3ccccc3)c2-c2ccccc2)cc1)C(=O)OCC", "output.unit": "nM", "result.number": 380}
{"chemical.smiles": "CC(=O)/C(=N\\Nc1ccc(-n2nc(C(=O)Nc3nnc(S(N)(=O)=O)s3)c(C(=O)c3ccccc3)c2-c2ccccc2)cc1)C(=O)OC(C)(C)C", "output.unit": "nM", "result.number": 330}

---

# target.entity: Carbonic anhydrase 2 (Homo sapiens)
# procedure.details: Enzyme Activity Assay
pKi: −log10 of the molar value.
Here the recorded pKi is given for each entry.

{"chemical.smiles": "CC(=O)/C(=N\\Nc1ccc(-n2nc(C(=O)Nc3nnc(S(N)(=O)=O)s3)c(C(=O)c3ccccc3)c2-c2ccccc2)cc1)C(=O)c1ccccc1", "target.entity": "Carbonic anhydrase 2 (Homo sapiens)", "pKi": 6.61}
{"chemical.smiles": "NS(=O)(=O)c1nnc(NC(=O)c2nn(-c3ccc(I)cc3)c(-c3ccccc3)c2C(=O)c2ccccc2)s1", "target.entity": "Carbonic anhydrase 2 (Homo sapiens)", "pKi": 7.25}
{"chemical.smiles": "CC(=O)Cn1c(C)cc2cc(-n3nc(C(=O)Nc4nnc(S(N)(=O)=O)s4)c(C(=O)c4ccccc4)c3-c3ccccc3)ccc21", "target.entity": "Carbonic anhydrase 2 (Homo sapiens)", "pKi": 5.41}
